pIC50 values by entry
biological target: T1, human immunoglobulin E (hIgE) (human, UniProt P01854-1 1-428); assay: SPR competition, hIgE + mAb over hFcεRIα chip, pH 6 (text: pH 5.5)
T1 construct: also called human IgE; Native IgE (Abcam)
T1 sequence (P01854 whole entry): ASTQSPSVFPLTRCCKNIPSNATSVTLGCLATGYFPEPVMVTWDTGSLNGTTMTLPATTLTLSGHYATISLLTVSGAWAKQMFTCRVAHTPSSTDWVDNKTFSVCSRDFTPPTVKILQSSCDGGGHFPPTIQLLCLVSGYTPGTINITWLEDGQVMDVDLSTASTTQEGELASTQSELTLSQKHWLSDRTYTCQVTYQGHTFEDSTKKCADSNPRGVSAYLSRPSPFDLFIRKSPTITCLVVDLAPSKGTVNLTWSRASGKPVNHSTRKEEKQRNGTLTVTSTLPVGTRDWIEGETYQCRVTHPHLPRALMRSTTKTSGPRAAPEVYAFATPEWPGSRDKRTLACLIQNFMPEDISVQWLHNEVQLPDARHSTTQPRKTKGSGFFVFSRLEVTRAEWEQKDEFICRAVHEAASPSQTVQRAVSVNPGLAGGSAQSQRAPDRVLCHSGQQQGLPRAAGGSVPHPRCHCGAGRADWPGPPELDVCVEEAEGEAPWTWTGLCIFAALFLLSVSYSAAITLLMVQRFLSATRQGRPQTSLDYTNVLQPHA
pIC50: −log10 of the molar value.
propertyMeasured: pIC50

binder	readoutNumber
3A1 human IgG1 mAb (antibody, V domains shown, human IgG1 and human light chain constant domains; also called clone 3A1) VH: EVQVQESGGGLVQPGGSLRLSCAASGFTFDNYAMSWVRQAPGKGLEWVSAISWNGGSTYYAESMKGRFTISRDNAKNMLYLQMNSLKSEDTAVYYCAKDLLVAARGGMDYWGKGTLVTVSS VL: SSALTQPSAVSVSLEQTARITCQGGTLGSYGAHWYQQKPGQAPVLLIYGDNSRPSGIPERFSGTRSGGTATLTISGAQAEDEADYYCQSFDYSGNAVFGGGTHLTVL	8.16
18B9 human IgG1 mAb (antibody, V domains shown, human IgG1 and human light chain constant domains; also called clone 18B9) VH: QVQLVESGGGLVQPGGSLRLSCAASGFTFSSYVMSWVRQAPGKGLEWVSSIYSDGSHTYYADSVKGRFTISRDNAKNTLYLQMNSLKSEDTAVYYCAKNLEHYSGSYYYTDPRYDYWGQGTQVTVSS VL: SSALTQPSALSVTLGQTAKITCQGGSLGSSYVHWYQQKPGQAPVLVIYDGDSRPSGIPERFSGSSSGGTATLTISGAQAEDEDDYYCQSADSSGNAVFGGGTHLTVL	8.25
3D1 human IgG1 mAb (antibody, V domains shown, human IgG1 and human light chain constant domains; also called clone 3D1; WT 3D1) VH: QLQVVESGGGLVQPGGSLRLSCAASGFTFSSYYMSWVRQAPGKGLEWVSSIYSDGRGSKTFYADSVKGRFTISRDNAKNTLYLQMNSLKSEDTAVYFCAKDLLVAARGSMDYWGQGTQVTVSS VL: NFMLTQPSAVSVSLEQTARITCQGGTLGSYGAHWYQQKPGQAPVLLIYGDNSRPSGIPERFSGTRSGGTATLTISGAQAEDEADYYCQSFDYSGNAVFGGGTHLTVL	8.35
